Let's look at some compounds and their measured pIC50.
biological target: P. aeruginosa PBP1a (Pseudomonas aeruginosa); test: PBP competition assay with Bocillin FL
Sequence (Q07806 whole entry): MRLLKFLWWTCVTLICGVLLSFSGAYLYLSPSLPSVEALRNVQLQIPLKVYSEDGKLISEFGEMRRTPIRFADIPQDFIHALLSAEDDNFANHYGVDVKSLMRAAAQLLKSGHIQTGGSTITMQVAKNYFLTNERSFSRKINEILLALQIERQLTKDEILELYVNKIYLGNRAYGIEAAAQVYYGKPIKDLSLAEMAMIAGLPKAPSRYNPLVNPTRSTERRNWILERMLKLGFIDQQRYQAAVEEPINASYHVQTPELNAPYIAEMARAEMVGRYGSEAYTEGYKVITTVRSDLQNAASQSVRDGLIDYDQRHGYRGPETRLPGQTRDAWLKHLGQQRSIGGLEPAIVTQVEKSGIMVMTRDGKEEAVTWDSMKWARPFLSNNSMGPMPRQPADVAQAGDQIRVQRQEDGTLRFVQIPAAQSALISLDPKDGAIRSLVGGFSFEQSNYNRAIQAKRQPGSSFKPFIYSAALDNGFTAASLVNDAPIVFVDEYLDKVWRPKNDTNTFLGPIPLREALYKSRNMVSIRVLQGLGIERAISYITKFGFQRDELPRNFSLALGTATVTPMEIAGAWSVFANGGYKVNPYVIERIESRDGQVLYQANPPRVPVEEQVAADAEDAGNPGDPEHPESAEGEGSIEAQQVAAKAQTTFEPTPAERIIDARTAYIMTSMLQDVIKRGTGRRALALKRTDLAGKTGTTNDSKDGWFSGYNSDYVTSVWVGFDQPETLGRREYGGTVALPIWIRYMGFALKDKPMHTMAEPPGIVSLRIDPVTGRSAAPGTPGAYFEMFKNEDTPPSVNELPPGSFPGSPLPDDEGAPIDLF
pIC50: −log10 of the molar value.

>  <Cpd Smiles>
CC1(C)S[C@@H]2[C@H](/N=C/N3CCCCCC3)C(=O)N2[C@H]1C(=O)O

>  <Assay Target>
P. aeruginosa PBP1a (Pseudomonas aeruginosa)

>  <pIC50>
< 4.40

$$$$

Could you tell me which pIC50 is on file for CC(C)(O/N=C(\C(=O)N[C@@H]1C(=O)N2C(C(=O)[O-])=C(C[n+]3ccccc3)CS[C@H]12)c1csc(N)n1)C(=O)O ?
6.46

State the recorded pIC50 for this entry: NC(=O)[C@@H]1CC[C@@H]2CN1C(=O)N2OS(=O)(=O)O
< 4.31
